Provide the reported IC50 of each item.
# test.target: GTPase KRas (Homo sapiens, UniProt P01116)
# test.summary: Inhibition of recombinant human N-terminal His-tagged KRAS (2 to 185 residues) expressed in baculovirus infected Sf9 insect cells using GTP as substrate measured after 2 hrs by GTPase-glo assay

{"molecule": "C=CC(=O)N1CCN(c2nc(=O)n(-c3c(C)ccnc3C(C)C)c3c(F)c(-c4c(O)cccc4F)ncc23)[C@@H](C)C1 (stereo in doubt; 26a)", "IC50": "> 10 µM"}
{"molecule": "C=CC(=O)N1CCN(c2nc(=O)n(-c3c(C(C)C)cccc3C(C)C)c3c(F)c(-c4c(O)cccc4F)ncc23)[C@@H](C)C1", "IC50": "> 10 µM"}
{"molecule": "C=CC(=O)N1CCN(c2nc(=O)n(-c3c(C(C)C)ncnc3C(C)C)c3c(F)c(-c4c(O)cccc4F)ncc23)[C@@H](C)C1", "IC50": "> 10 µM"}

Hello, I would appreciate it if you could give IC50 for each entry below.
1. C=CC(=O)N1CCN(c2nc(=O)n(-c3c(C)ccnc3C(C)C)c3c(Cl)c(-c4c(O)cccc4F)ncc23)[C@@H](C)C1
2. C=CC(=O)N1CCN(c2nc(=O)n(-c3c(C(C)C)ncnc3C(C)C)c3c(Cl)c(-c4c(O)cccc4F)ncc23)[C@@H](C)C1

Result block:
["> 10 µM", "> 10 µM"]

---

Provide the reported pIC50 of each item.
# Test system: MIA PaCa-2
# test.summary: Antiproliferative activity against human MIA PaCa-2 cells harboring KRAS G12C mutant assessed as growth inhibition measured after 72 hrs by CCK8 assay
# Type: functional, cell-based
# condition: Homo sapiens, MIA PaCa-2, 72 h
pIC50: −log10 of the molar value.

Please review the following examples before continuing.
{"chemical.structure": "C=CC(=O)N1CCN(c2nc(=O)n(-c3c(C)ccnc3C(C)C)c3nc4c(cc23)oc2ccc(F)cc24)[C@@H](C)C1", "assay.result": "< 5.00"}
{"chemical.structure": "C=CC(=O)N1CCN(c2nc(=O)n(-c3c(C)ccnc3C(C)C)c3nc4c(cc23)oc2ccc(C)cc24)[C@@H](C)C1", "assay.result": "< 5.00"}

// next item, pIC50 requested
Looking up `C=CC(=O)N1C2CCC1CN(c1nc(=O)n(-c3c(C)ccnc3C(C)C)c3nc4c(cc13)oc1cccc(F)c14)C2` , I found its pIC50 recorded as < 5.00
